System: Escherichia coli
assayExplanation: Antibacterial activity against Escherichia coli JM109 carrying pMCL210 by agar dilution method
Assay type: functional
measuredParameter: MIC (µg/mL)
Reply with just the number (in µg/mL).

# annotated cases, reported MIC shown
- molecule: "NC[C@H]1O[C@H](O[C@H]2[C@H](O)[C@@H](O[C@H]3O[C@H](CO)[C@@H](O)[C@H](N)[C@H]3O)[C@H](N)C[C@@H]2N)[C@H](O)[C@@H](O)[C@@H]1O [KANAMYCIN]"
  MIC, µg/mL: 0.5
- molecule: "NC[C@H]1O[C@H](O[C@H]2[C@H](O)[C@@H](O[C@H]3O[C@H](CO)[C@@H](O)[C@H](N)[C@H]3O)[C@H](N)C[C@@H]2N)[C@H](N)C[C@@H]1O [TOBRAMYCIN]"
  MIC, µg/mL: 0.13

Next molecule, please.
Problem: Need MIC of CN[C@@H]1[C@@H](O)[C@@H](O[C@@H]2[C@@H](O)[C@H](O[C@H]3OC(CN)=CC[C@H]3N)[C@@H](N)C[C@H]2N)OC[C@]1(C)O [SISOMICIN] , thanks.
Result: 0.13

* * *

System: Escherichia coli
assayExplanation: Antibacterial activity against Escherichia coli JM109 carrying pMCL210 by agar dilution method
Type: functional
The entries below are paired with their reported log10(MIC).
Values below are the log10 of the recorded MIC, with µg/mL as the unit.

Completed entries (count: 5):
- compound: "CCN[C@@H]1C[C@H](N)[C@@H](O[C@H]2OC(CN)=CC[C@H]2N)[C@H](O)[C@H]1O[C@H]1OC[C@](C)(O)[C@H](NC)[C@H]1O [NETILMICIN]"
  subjectOfTest: "Escherichia coli"
  log10(MIC): -0.89
- compound: "CN[C@H]1C[C@@H](N)[C@H](O)[C@@H](O[C@@H]2O[C@H](CO)[C@H](O)[C@H]3O[C@@]4(O[C@H]23)O[C@H]([C@H](N)CO)[C@H](O)[C@H](O)[C@H]4O)[C@@H]1O"
  subjectOfTest: "Escherichia coli"
  log10(MIC): 1.51
- compound: "NC[C@H]1O[C@H](O[C@H]2[C@H](O[C@@H]3O[C@H](CO)[C@@H](O)[C@H]3O)[C@@H](O)[C@H](N)C[C@@H]2N)[C@H](N)[C@@H](O)[C@@H]1O [RIBOSTAMYCIN]"
  subjectOfTest: "Escherichia coli"
  log10(MIC): -0.30
- compound: "CN[C@@H]1[C@@H](O)[C@@H](O[C@@H]2[C@@H](O)[C@H](O[C@H]3O[C@H](CN)[C@@H](O)[C@H](O)[C@H]3O)[C@@H](N)C[C@H]2NC(=O)[C@@H](O)CN)OC[C@]1(C)O [ISEPAMICIN]"
  subjectOfTest: "Escherichia coli"
  log10(MIC): -0.89
- compound: "NC[C@@H]1O[C@H](O[C@H]2[C@@H](O)[C@H](O[C@@H]3[C@@H](O)[C@H](N)C[C@H](N)[C@H]3O[C@H]3O[C@H](CO)[C@@H](O)[C@H](O)[C@H]3N)O[C@@H]2CO)[C@H](N)[C@@H](O)[C@@H]1O [PAROMOMYCIN]"
  subjectOfTest: "Escherichia coli"
  log10(MIC): 0.00

Problem: Name the recorded log10(MIC) for NC[C@@H]1O[C@H](O[C@H]2[C@@H](O)[C@H](O[C@@H]3[C@@H](O)[C@H](N)C[C@H](N)[C@H]3O[C@H]3O[C@H](CO)[C@@H](O)C[C@H]3N)O[C@@H]2CO)[C@H](N)[C@@H](O)[C@@H]1O[C@H]1O[C@H](CO)[C@@H](O)[C@H](O)[C@@H]1O [LIVIDOMYCIN] .
Result: 0.30

Problem: Okay, and CN[C@@H]1[C@H](O[C@H]2[C@H](O[C@H]3[C@H](O)[C@@H](O)[C@H](N=C(N)N)[C@@H](O)[C@@H]3N=C(N)N)O[C@@H](C)[C@]2(O)C=O)O[C@@H](CO)[C@H](O)[C@H]1O [STREPTOMYCIN] ?
Result: 0.00

Problem: # iterate: NCC[C@H](O)C(=O)N[C@@H]1C[C@H](N)[C@@H](O[C@H]2O[C@H](CN)CC[C@H]2N)[C@H](O)[C@H]1O[C@H]1O[C@H](CO)[C@@H](O)[C@H](N)[C@H]1O [ARBEKACIN]
Result: -0.60

Problem: Would you mind doing NCC[C@H](O)C(=O)N[C@@H]1C[C@H](N)[C@@H](O[C@H]2O[C@H](CN)[C@@H](O)[C@H](O)[C@H]2O)[C@H](O)[C@H]1O[C@H]1O[C@H](CO)[C@@H](O)[C@H](N)[C@H]1O [AMIKACIN] as well?
Result: -0.30

Problem: How about this compound: NC[C@@H]1CC[C@@H](N)[C@@H](O[C@H]2[C@H](O)[C@@H](O[C@H]3O[C@H](CO)[C@@H](O)[C@H](N)[C@H]3O)[C@H](N)C[C@@H]2N)O1 [DIBEKACIN]
Result: -0.60

* * *

System: Escherichia coli
assayExplanation: Antibacterial activity against Escherichia coli JM109 carrying pMCL210 by agar dilution method
Format: functional
MIC values for the compounds below.
Output spec: scalar in µg/mL, unitless text.

Please review the entries below; each comes with its answer.
- compound: "CN[C@@H]1[C@H](O)[C@H](NC)[C@H]2O[C@@]3(O)C(=O)C[C@@H](C)O[C@H]3O[C@@H]2[C@H]1O"
  measuredParameter: "MIC"
  unitsOfMeasure: "µg/mL"
  valueMeasured: 16
- compound: "CN[C@@H]1[C@@H](O[C@H]2O[C@H](CO)[C@@H](N)[C@H](O)[C@H]2O)OC2C[C@@H](N)[C@@H](O[C@H]3[C@H](O)[C@@H](O)[C@H](N)C[C@@H]3N)OC2[C@@H]1O (stereo partly drawn)"
  measuredParameter: "MIC"
  unitsOfMeasure: "µg/mL"
  valueMeasured: 2

Now, please, on to the next compound.
Problem: # MIC lookup, item NC[C@@H]1O[C@H](O[C@H]2[C@@H](O)[C@H](O[C@@H]3[C@@H](O)[C@H](N)C[C@H](N)[C@H]3O[C@H]3O[C@H](CN)[C@@H](O)[C@H](O)[C@H]3N)O[C@@H]2CO)[C@H](N)[C@@H](O)[C@@H]1O
Result: 0.25
